Target: cruzain (cruzipain), Trypanosoma cruzi
Assay: inhibition of T. cruzi cysteine protease cruzain – biochemical, dry powder, dose response (AID 651897)
Conditions: purified recombinant cruzain, Z-Phe-Arg-AMC fluorescence
ENDPOINT NAME: pIC50
Note: pIC50 values are expressed as the negative base-10 logarithm of concentration in M.

Query: GET /values?readout=pIC50&item= C[C@H]1CN([C@@H](C)CO)C(=O)c2cccc(NC(=O)c3ccncc3)c2O[C@@H]1CN(C)Cc1ccc(Oc2ccccc2)cc1
Result: 4.88

Measured values drawn from PubChem BioAssay AID651897 for this set.
